- System: Pseudomonas aeruginosa
- ASSAY_COMMENT: Antibacterial activity against Pseudomonas aeruginosa ATCC 25619 at 5 mg after 24 hrs by agar well diffusion assay
- Format: functional
- TEST_CONTEXT: ATCC 25619, 24 h, read-out: DIZ
ENDPOINT_LABEL: zone of inhibition at 5000 µg/disc (mm)
Numbers only, in mm.

Completed entries (count: 4):
- SUBSTANCE_SMILES: "COc1ccc(N2C(=O)N(c3cccc(Cl)c3)C(=N)C2=S)c(OC)c1"
  zone of inhibition at 5000 µg/disc (mm): 16
- SUBSTANCE_SMILES: "Cc1ccc(F)cc1N1C(=N)C(=S)N(c2cc(Cl)cc(Cl)c2)C1=O"
  zone of inhibition at 5000 µg/disc (mm): 22
- SUBSTANCE_SMILES: "CSc1ccc(N2C(=N)C(=S)N(c3cc(Cl)cc(Cl)c3)C2=O)cc1"
  zone of inhibition at 5000 µg/disc (mm): 21
- SUBSTANCE_SMILES: "N=C1C(=S)N(c2ccccc2)C(=O)N1c1c(Cl)cccc1Cl"
  zone of inhibition at 5000 µg/disc (mm): 15

Exam item: Which zone of inhibition at 5000 µg/disc is reported with Pseudomonas aeruginosa for this entry: N=C1C(=S)N(c2cc(Cl)cc(Cl)c2)C(=O)N1c1cccc(Cl)c1 ?
Marked response: 0

---

Exercise: state measured IC50 for each of the molecules provided.
- ASSAY_COMMENT: Cytotoxicity against human PC3 cells assessed as decrease in cell viability after 48 hrs by SRB assay
- Type: functional, cell-based
- TEST_CONTEXT: pc-3
One number for each entry, in µg.

Look over these answered cases.
- SUBSTANCE_SMILES: "COc1ccc(OC)c(N2C(=O)N(c3ccc4c(c3)Cc3ccccc3-4)C(=N)C2=S)c1"
  UNIT_LABEL: "µg"
  IC50: 0.056
- SUBSTANCE_SMILES: "N=C1C(=S)N(c2cc(Cl)cc(Cl)c2)C(=O)N1c1c(Cl)cccc1Cl"
  UNIT_LABEL: "µg"
  IC50: 0.064
- SUBSTANCE_SMILES: "COc1ccc(OC)c(N2C(=O)N(c3ccc(C)cc3)C(=N)C2=S)c1"
  UNIT_LABEL: "µg"
  IC50: 0.048

Hi! Can you tell me IC50 for each of these molecules?
1. COc1ccc(OC)c(N2C(=O)N(c3ccc(SC)cc3)C(=N)C2=S)c1
2. COc1ccc(N2C(=O)N(c3cccc(Cl)c3)C(=N)C2=S)c(OC)c1
3. Cc1ccc(N2C(=N)C(=S)N(c3cc(Cl)cc(Cl)c3)C2=O)cc1

Marked response:
0.047
0.031
0.035

Report IC50 for every entry below.
1. N=C1C(=S)N(c2cc(Cl)cc(Cl)c2)C(=O)N1c1ccc(Cl)c(C(F)(F)F)c1
2. N=C1C(=S)N(c2cc(Cl)cc(Cl)c2)C(=O)N1c1cc(Cl)c(Cl)cc1Cl
3. CSc1ccc(N2C(=N)C(=S)N(c3cc(Cl)cc(Cl)c3)C2=O)cc1
4. COc1ccc(N2C(=N)C(=S)N(c3cc(OC)ccc3OC)C2=O)cc1

Marked response:
[0.039, 0.017, 0.049, 0.051]

---

- ASSAY_COMMENT: Cytotoxicity against human HepG2 cells assessed as decrease in cell viability after 48 hrs by SRB assay
- Format: functional, cell-based
For each of the compounds below, state its IC50.
Give bare numbers, in µg.

Here are 3 compounds. What values of IC50 were reported for them?
1. Cc1ccc(F)cc1N1C(=N)C(=S)N(c2cc(Cl)cc(Cl)c2)C1=O
2. COc1ccc(N2C(=N)C(=S)N(c3cc(OC)ccc3OC)C2=O)cc1
3. COc1ccc(N2C(=O)N(c3cccc(Cl)c3)C(=N)C2=S)c(OC)c1

Marked response:
1: 0.05; 2: 0.032; 3: 0.012
